# target under test: T1, recombinant biotinylated CD71 extracellular domain (Sino Biologics) with an N-terminal 6His tag (human, UniProt P02786 89-760, biotinylated (sites not given))
# T1 construct: extracellular domain; also called hCD71; huCD71
# T1 sequence (P02786 other isoform, or with tags, fused parts or gaps): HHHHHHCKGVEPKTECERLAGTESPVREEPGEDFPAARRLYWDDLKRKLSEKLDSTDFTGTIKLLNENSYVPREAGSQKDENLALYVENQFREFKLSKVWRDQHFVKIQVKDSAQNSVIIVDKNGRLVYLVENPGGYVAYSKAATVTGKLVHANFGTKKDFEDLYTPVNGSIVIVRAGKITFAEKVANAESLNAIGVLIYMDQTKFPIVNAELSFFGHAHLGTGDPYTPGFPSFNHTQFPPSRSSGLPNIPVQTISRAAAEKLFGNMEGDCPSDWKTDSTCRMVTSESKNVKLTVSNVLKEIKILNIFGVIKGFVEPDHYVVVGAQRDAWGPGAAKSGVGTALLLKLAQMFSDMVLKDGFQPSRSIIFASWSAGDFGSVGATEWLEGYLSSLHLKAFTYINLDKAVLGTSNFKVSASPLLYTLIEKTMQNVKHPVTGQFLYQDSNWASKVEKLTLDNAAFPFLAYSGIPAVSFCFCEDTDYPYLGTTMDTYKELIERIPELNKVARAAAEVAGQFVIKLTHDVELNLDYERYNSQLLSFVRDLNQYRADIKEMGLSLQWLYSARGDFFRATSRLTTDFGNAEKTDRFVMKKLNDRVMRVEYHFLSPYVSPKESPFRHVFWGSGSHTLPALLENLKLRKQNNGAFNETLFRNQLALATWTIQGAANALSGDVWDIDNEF
# experimental protocol: screening ELISA
readout type: hCD71
// return a plain number; no unit text

So what's the measured hCD71 for this one? SEQ ID NO 291 (designed binder, FN3 domain) MLPAPKNLVVSRVTEDSARLSWTAPDAAFDSFHIEYEEPETEGEAIYLHVPGSERSYDLTGLKPGTEYKVLIRGVKGGSYSIPLQAPFTT 3.83e+06

Endpoint output: hCD71 of SEQ ID NO 146 (designed binder, FN3 domain) MLPAPKNLVVSRVTEDSARLSWTAPDAAFDSFYIAYAEPRPDGEAIVLTVPGSERSYDLTGLKPGTEYSVLIHGVKGGLLSSPLSAIFTT . Value? 3.07e+06

Any idea what hCD71 was measured for SEQ ID NO 177 (designed binder, FN3 domain) MLPAPKNLVVSRVTEDSARLSWTAPDAAFDSFFIGYLEPQPPGEAIVLTVPGSERSYDLTGLKPGTEYNVTIQGVKGGRASGPLSAIFTT ? 2.61e+06

What value of measured hCD71 is listed for SEQ ID NO 83 (designed binder, FN3 domain) MLPAPKNLVVSRVTEDSARLSWTAPDAAFDSFYIYYYESSGTGEAIVLTVPGSERSYDLTGLKPGTEYFVDIGGVKGGSYSLPLSAIFTT ? 1.93e+06

Quick one: hCD71 of SEQ ID NO 120 (designed binder, FN3 domain) MLPAPKNLVVSRVTEDSARLSWTAPDAAFDSFRIEYIEWWVGGEAIVLTVPGSERSYDLTGLKPGTEYWVDIKGVKGGKRSYPLSAIFTT ? 3.64e+06

I'd like to know its hCD71. The binder in question is SEQ ID NO 249 (designed binder, FN3 domain) MLPAPKNLVVSRVTEDSARLSWTAPDAAFDSFSIDYFESVGFGEAIVLTVPGSERSYDLTGLKPGTEYDVQITGVKGGPHSLPLSAIFTT 1.05e+06

# query: hCD71 of entry SEQ ID NO 201 (designed binder, FN3 domain) MLPAPKNLVVSRVTEDSARLSWTAPDAAFDSFNIDYWETWVIGEAIVLTVPGSERSYDLTGLKPGTEYEVIIPGVKGGTISPPLSAIFTT 1.2e+06

// lookup hCD71 for SEQ ID NO 306 (designed binder, FN3 domain) MLPAPKNLVVSRVTEDSARLSWTAPDAAFDSFYIEYFETQGYGEAIVLTVPGSERSYDLTGLKPGTEYYVAIYGVKGGYLSRPLSAIFTT 4.07e+06

Dear colleague, I am looking for the recorded hCD71 of the following binder: SEQ ID NO 247 (designed binder, FN3 domain) MLPAPKNLVVSRVTEDSARLSWTAPDAAFDSFYIEWTYKGEAIVLTVPGSERSYDLTGLKPGTEYFVGIPGVKGGKSSYPLSAIFTT 916000

GET /values?readout=hCD71&item= SEQ ID NO 191 (designed binder, FN3 domain) MLPAPENLVVSRVTEDSARLSWTAPDAAFDSFEITYEENWRRGEAIVLTVPGSERSYDLTGPKPGTEYIVIIQGVKGGAESWPLSAIFTT 1.47e+06

Could you tell me which hCD71 is on file for SEQ ID NO 209 (designed binder, FN3 domain) MLPAPKNLVVSRVTEDSARLSWTAPDAAFDSFTIPYIEYVWWGEAIVLTVQGSERSYDLTGLKPGTEYPVTIGGVKGGSRSHPLHAHFTT ? 790000

Could you share which hCD71 value was measured for SEQ ID NO 150 (designed binder, FN3 domain) MLPAPKNLVVSRVTEDSARLSWTAPDAAFDSFPIAYAEPSPTGEAIVLTVPGSERSYDLTGLKPGTEYSVLIHGVKGGHLSDPLSAIFTT ? 2.62e+06

# input binder: SEQ ID NO 263 (designed binder, FN3 domain) MLPAPKNLVVSRVTEDSARLSWTAPDAAFDSFFIGYLEPQPPGEAIVLTVPGSERSYDLTGLKPGTEYNVTIQGVKGGFPSMPLSAISTT ; wanted: its hCD71 1.88e+06

What measured hCD71 goes with SEQ ID NO 255 (designed binder, FN3 domain) MLPAPKNLVVSRVTEDSARLSWTAPDAAFDSFDIEYYELIGRGEAIVLTVPGSERSYDLTGLKPGTEYWVGIYGVKGGWLSRPLSAIFTT ? 1.84e+06

Name the recorded hCD71 for SEQ ID NO 140 (designed binder, FN3 domain) MLPAPKNLVVSRVTEDSARLSWTAPDAAFDSFWISYEESDTEGEAIYLRVPGSERSYDLTGLKPGTEYNVTIQGVKGGFPSMPLSAIFTT . 4.18e+06

Reported hCD71, binder SEQ ID NO 194 (designed binder, FN3 domain) MLPAPKNLVVSRVTEDSARLSWTAPDAAFDSFEIDYDELAIYGEAIVLTVPGSERSYDLTGLKPGTEYRVFIYGVKGGWTSWPLSTIFTT : ____ 562000

// hCD71 lookup, key: SEQ ID NO 265 (designed binder, FN3 domain) MLPAPKNLVVSRVTEDSARLSWTAPDAAFDSFWIYYIETSHQGEAIVLTVPGSERSYDLTGLKPGTEYFVLIKGVKGGYDSVPLSAIFTT 3.61e+06

Fill in the blank: the reported hCD71 of SEQ ID NO 282 (designed binder, FN3 domain) MLPAPKNLVVSRVTEDSARLSWTAPDAAFDSFAIVYHEPRPDGEAIVLTVPGSERSYDLTGLKPGTEYEVVILGVKGGVHSYPLSAIFTT is ____. 3.85e+06

The measured values listed here are drawn from patent US20210145976A1.
